These entries and their values trace back to PubChem BioAssay AID504607.

Assay Details: luminescence decrease from intact luciferase reporter – cell-based, single concentration, SaOS-2, counter-screen for Mdm2/MdmX interaction inhibitor project, confirmation (AID 504607);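 further: p53-null SaOS-2 cells with luciferase driven by a doxycycline-inducible promoter; compound on cells about two nights before reading with doxycycline added after day one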
Condition Set: SaOS-2 full-length luciferase counterscreen, at 8 µM, active compounds read high
In all, about 6,200 compounds went through this assay and about 4,800 (77%) were called active. The set was probably picked from earlier hits. A selection follows.
Please provide measured inhibition for the entries that follow.
Numbers only here, please. The scale is %.

Query: Look at this compound and give its reported inhibition. "CC[C@]1(O)C[C@@H]2CN(CCc3c([nH]c4ccccc34)[C@@](C(=O)OC)(c3cc4c(cc3OC)N(C)[C@H]3[C@@](O)(C(=O)OC)[C@H](OC(C)=O)[C@]5(CC)C=CCN6CC[C@]43[C@@H]65)C2)C1"
Result: 94.7

Query: Look at this compound and give its reported inhibition. "O=C(CCCN1C(=O)/C(=C/c2cccs2)SC1=S)Nc1ccc(O)cc1"
Result: 43

Query: Look at this compound and give its reported inhibition. "COc1ccc(-c2n[nH]c(C)c2-c2ccc(OC)c(OC)c2)c(O)c1"
Result: 53.7

Query: Look at this compound and give its reported inhibition. "CCNC(=O)c1c(O)c2cccc3c2n(c1=O)CC3"
Result: 22.6

Query: Look at this compound and give its reported inhibition. "Oc1c(Br)cccc1/C=N/Nc1c(F)c(F)c(F)c(F)c1F"
Result: 56.7

Query: Look at this compound and give its reported inhibition. "CCCc1nc2c(c(=O)c3ccccc3n2C)c(=O)n1C1CCCCCC1"
Result: 63.9

Query: Look at this compound and give its reported inhibition. "COc1ccc(CNc2nc(NCc3ccc(OC)cc3)c3ncn(C4CCCC4)c3n2)cc1"
Result: 73

Query: Look at this compound and give its reported inhibition. O=C1/C(=C/c2ccc(F)cc2)SC(=S)N1CCCC(=O)N1CCCCC1CCO (stereo not given)
Result: 23.7

Query: Look at this compound and give its reported inhibition. "COc1ccccc1N1CCN(c2ncnc3sc(C)c(-c4ccccc4)c23)CC1"
Result: 80.6

Query: Look at this compound and give its reported inhibition. "COc1ccc2[nH]c(=O)c(CN(Cc3cccnc3)S(=O)(=O)c3ccccc3F)cc2c1"
Result: 56.2

Query: Look at this compound and give its reported inhibition. "CC(=O)N1CCc2c(sc(NC(=O)CCS(=O)(=O)c3ccccc3)c2C#N)C1"
Result: 57.3

Query: Look at this compound and give its reported inhibition. "O=C1NC[C@@H](c2ccccc2)OC(=O)[C@H](Cc2ccc(F)cc2)CC/C=C/C[C@H]1CC(=O)N(CCO)Cc1ccccc1"
Result: 79

Query: Look at this compound and give its reported inhibition. "Cc1c(Cl)c([N+](=O)[O-])nn1Cc1ccc(C(=O)N/N=C\c2cc(Cl)ccc2O)o1"
Result: 32.4

Query: Look at this compound and give its reported inhibition. "O=C(CCCN1C(=O)/C(=C\c2ccccc2)SC1=S)Nc1ccccc1O"
Result: 30.3

Query: Look at this compound and give its reported inhibition. "COc1ccc(/C=C2\SC(=S)N(CCC(=O)Nc3ccccn3)C2=O)cc1OC"
Result: 72.7

Query: Look at this compound and give its reported inhibition. "O=C(CCCN1C(=O)/C(=C/c2ccccc2)SC1=S)Nc1ccc(O)cc1"
Result: 51.8

Query: Look at this compound and give its reported inhibition. "Cc1nnc(NC(=O)Nc2ccc(Cl)c(Cl)c2)s1"
Result: 33.4

Query: Look at this compound and give its reported inhibition. "CCN(CC)c1ccc(/C=N/Nc2nc(C)cc(C)n2)c(O)c1"
Result: 38.6

Query: Look at this compound and give its reported inhibition. "O=C(CCCN1C(=O)/C(=C\c2ccco2)SC1=S)Nc1cccc2ccccc12"
Result: 28.5

Query: Look at this compound and give its reported inhibition. "CNC[C@H](CC1CCCCC1)NC[C@H](NCCC1CCCC1)[C@H](C)O"
Result: 30.2

* * *

Assay Details: luminescence decrease from intact luciferase reporter – cell-based, single concentration, SaOS-2, counter-screen for Mdm2/MdmX interaction inhibitor project, confirmation (AID 504607);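 further: p53-null SaOS-2 cells with luciferase driven by a doxycycline-inducible promoter; compound on cells about two nights before reading with doxycycline added after day one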
Condition Set: SaOS-2 full-length luciferase counterscreen, at 8 µM, active compounds read high
Hit rate of the full screen: of about 6,200 compounds, about 4,800 (77%) were called active. The set was probably picked from earlier hits. A selection follows.
Please provide measured inhibition for the entries that follow.

Query: Look at this molecule and give its reported inhibition. "CCN1C(=O)/C(=C\N2CCN(c3cccc(Cl)c3)CC2)SC1=S"
Result: 72.2% (active)

Query: Look at this molecule and give its reported inhibition. "CCN1/C(=C\c2ccc3ccccc3[n+]2CC)Sc2cc(C)ccc21"
Result: 25% (inactive)

Query: Look at this molecule and give its reported inhibition. FC(F)(F)c1ccc(CN2C[C@@H]3C(c4ccccc4)C4(c5ccccc5)CC3(C4)[C@H]2c2ccccc2)cc1 (stereo not given in full)
Result: 27.2% (inactive)

Query: Look at this molecule and give its reported inhibition. CC(NC(=O)Nc1ccccc1)C(c1cccs1)N1CCN(c2ccccc2)CC1 (stereo not given)
Result: 58% (active)

Query: Look at this molecule and give its reported inhibition. "NC(N)=N/N=C/c1ccc(OCc2ccc(Cl)cc2Cl)cc1"
Result: 50.2% (active)

Query: Look at this molecule and give its reported inhibition. "Cc1ccc(-c2cn3cc(C)ccc3n2)cc1"
Result: 29% (inactive)

Query: Look at this molecule and give its reported inhibition. "O=C(/C=C/c1ccc(OCc2c(F)cccc2Cl)cc1)N1CCOCC1"
Result: 27.7% (inactive)

Query: Look at this molecule and give its reported inhibition. "COc1cc(NC(=O)c2ccccc2NS(=O)(=O)c2ccc(Cl)s2)cc(OC)c1"
Result: 40.5% (active)

Query: Look at this molecule and give its reported inhibition. "CCCCC(O)(CCCC)C(=O)NN(C(=O)CCl)c1ccccc1"
Result: 34% (inactive)

Query: Look at this molecule and give its reported inhibition. "Cc1ccc(OCCOCCOc2ccc(Br)cc2/C=N\NC(=O)c2ccncc2)cc1"
Result: 45.5% (active)

* * *

Assay Details: luminescence decrease from intact luciferase reporter – cell-based, single concentration, SaOS-2, counter-screen for Mdm2/MdmX interaction inhibitor project, confirmation (AID 504607);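 further: p53-null SaOS-2 cells with luciferase driven by a doxycycline-inducible promoter; compound on cells about two nights before reading with doxycycline added after day one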
Condition Set: SaOS-2 full-length luciferase counterscreen, at 8 µM
The whole screen tested about 6,200 compounds, of which about 4,800 (77%) were called active.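 How the source made its calls: active means mean inhibition at 8 µM reaching about 37%, which flags the compound as non-specific (limit read from the data); inactive means the rest.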 The set was probably picked from earlier hits. Only a sample is shown.
The categories you may choose from are active, inactive

Query: Would you mind telling me which call this test gave "CC[C@]1(C(=O)OC)[C@H]2C(=O)N(Cc3ccccc3)C(=O)[C@H]2[C@H]2CN=C(SCc3ccc(C#N)cc3)N21" ?
Result: active

Query: Would you mind telling me which call this test gave "O=C(NCC#CCSc1nnc(-c2cccc3ccccc23)o1)c1cccs1" ?
Result: inactive

Query: Would you mind telling me which call this test gave "COc1ccccc1N(CC(=O)N/N=C(\C)c1ccccc1O)S(=O)(=O)c1ccc(C)cc1" ?
Result: active

Query: Would you mind telling me which call this test gave "COC(=O)Cc1[nH]n(-c2nc3ccccc3s2)c(=O)c1C(C)=Nc1ccc(OC)cc1" ?
Result: inactive

Query: Would you mind telling me which call this test gave "Oc1ccc(Br)cc1/C=N/Nc1ccccn1" ?
Result: inactive

Query: Would you mind telling me which call this test gave Cc1ccccc1C(CC(=O)c1cccs1)C(C#N)C#N (centres undefined) ?
Result: active

Query: Would you mind telling me which call this test gave "COc1cc(OC)c2c(-c3cccc(-c4cccc(N)c4)c3)cc(=O)oc2c1" ?
Result: active

Query: Would you mind telling me which call this test gave "COc1ccc(NC(=O)c2cc(-c3cc(OC)c(OC)c(OC)c3)nc3ccccc23)c(OC)c1" ?
Result: active

Query: Would you mind telling me which call this test gave "O=[N+]([O-])c1c(NCCO)cc(Sc2nc3ccccc3s2)c2nonc12" ?
Result: active

Query: Would you mind telling me which call this test gave "Oc1cccc(/C=N/Nc2ccc(Cl)nn2)c1O" ?
Result: active

Query: Would you mind telling me which call this test gave "OCCNc1nc(Nc2ccc(Cl)c(Cl)c2)nc2ccccc12" ?
Result: inactive

Query: Would you mind telling me which call this test gave CCCCNC(=O)C(C)N(CCN(C)C)C(=O)CCCCCN1C(=O)NC(c2ccc(Cl)cc2)C(C(=O)OCc2ccccc2)=C1C (centres undefined) ?
Result: inactive

Query: Would you mind telling me which call this test gave "c1ccc2c(c1)C(=NC1CCCCC1)NC2=NC1CCCCC1" ?
Result: active

Query: Would you mind telling me which call this test gave "Cc1c(CN2CCC(CO)(CCOc3ccccc3)CC2)[nH]c2ccc(Cl)cc12" ?
Result: active

* * *

Please provide measured inhibition for the entries that follow.
Assay Details: luminescence decrease from intact luciferase reporter – cell-based, single concentration, SaOS-2, counter-screen for Mdm2/MdmX interaction inhibitor project, confirmation (AID 504607);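 further: p53-null SaOS-2 cells with luciferase driven by a doxycycline-inducible promoter; compound on cells about two nights before reading with doxycycline added after day one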
Condition Set: SaOS-2 full-length luciferase counterscreen, at 8 µM, active compounds read high
Among all 6,200 compounds or so, about 4,800 (77%) were called active. The set was probably picked from earlier hits. A selection follows.
Numbers only here, please. The scale is %.

Query: Look at this compound and give its reported inhibition. "Cn1cc(/C=C/c2nc3ccccc3c(=O)n2-c2cccc([N+](=O)[O-])c2)c2ccccc21"
Result: 90.7

Query: Look at this compound and give its reported inhibition. "Oc1ccccc1N1CCN(c2ncnc3sc(-c4ccccc4)cc23)CC1"
Result: 58.6

Query: Look at this compound and give its reported inhibition. "C=CCSc1nsc(NC(=O)Nc2cccc(C(C)=O)c2)n1"
Result: 21.9

Query: Look at this compound and give its reported inhibition. "Cc1cccc(N(C)C(=O)c2cc3c(=O)[nH]c4ccc(C)cc4c3s2)c1"
Result: 43.4

Query: Look at this compound and give its reported inhibition. "CCOc1cc(C(=O)N2CCc3cc(OC)c(OC)cc3C2)ccc1OC(F)F"
Result: 86.4

Query: Look at this compound and give its reported inhibition. COc1ccc(NC(=O)/C(Cl)=C(/Cl)S(=O)Cc2ccc(C)cc2)cn1 (stereo unspecified)
Result: 0.18

Query: Look at this compound and give its reported inhibition. "O=C(Nc1nc2ccc([N+](=O)[O-])cc2s1)c1ccc(S(=O)(=O)N2CCCc3ccccc32)cc1"
Result: 20

Query: Look at this compound and give its reported inhibition. "Cc1ccc(N(Cc2cc(=O)[nH]c3ccccc23)C(=O)CCl)cc1"
Result: 25.3

Query: Look at this compound and give its reported inhibition. "Cc1cccn2c(=O)c3cc(C(=O)NCCN4CCOCC4)c(=N)n(Cc4cccnc4)c3nc12"
Result: 57.1

Query: Look at this compound and give its reported inhibition. CN(Cc1ccccc1)CC(O)COc1ccc(CNCc2cc3ccccc3s2)cc1 (stereo unspecified)
Result: 79.3

Query: Look at this compound and give its reported inhibition. "COc1ccc(C(=O)O/N=C(\N)Cc2ccc(Cl)cc2Cl)cc1OC"
Result: 47.8

Query: Look at this compound and give its reported inhibition. "Cc1ccccc1NC(=O)CSc1nc2ccc(Nc3nc(N4CCOCC4)nc(N4CCOCC4)n3)cc2s1"
Result: 81.4

Query: Look at this compound and give its reported inhibition. "CC(=O)c1ccc(Oc2cc(C)nc(-n3nc(C)cc3C)n2)cc1"
Result: 78.7

Query: Look at this compound and give its reported inhibition. COc1ccc(CCn2c(=N)c(C(=O)NCC3CCCO3)cc3c(=O)n4cccc(C)c4nc32)cc1OC (stereo unspecified)
Result: 54

Query: Look at this compound and give its reported inhibition. "COC(=O)c1c(NC(=O)COc2ccc(Cl)cc2Cl)sc2c1CC(C)(C)NC2(C)C"
Result: 3.07

Query: Look at this compound and give its reported inhibition. COc1ccc(C(=O)NC2CCCc3c2cnn3-c2cccc(C)c2C)c(OC)n1 (stereo unspecified)
Result: 54.8
